- measurement protocol: Pharmacokinetics in plasma and tumor, HCT116 tumor-bearing mice
- Type: in vivo, nude mice
- condition details: nude, mouse, plasma, iv, 10 mg/kg, single i.v. 10 mg/kg; read-out: MRT in plasma
measured metric: MRT (min)
Dear colleague, please return just the value in min, with no unit written.

For reference, reported MRT for CN(Cc1nc2c(N3CCOCC3)nc(-c3ccc(N)cc3)nc2n1C)c1ncc(C(=O)NO)cn1.CS(=O)(=O)O [PM] stands at 30.6

====

- measurement protocol: Pharmacokinetics, intravenous
- Type: in vivo, Beagle dogs
- condition details: both sexes, Beagle, dog, plasma, 1 mg/kg, read-out: plasma clearance (CL)
measured metric: clearance

For reference, reported clearance for CN(Cc1nc2c(N3CCOCC3)nc(-c3ccc(N)cc3)nc2n1C)c1ncc(C(=O)NO)cn1.CS(=O)(=O)O stands at 73.4 mL/min/kg

====

- measurement protocol: Pharmacokinetics, intravenous
- Assay type: in vivo, SD rats
- condition details: both sexes, SD, rat, plasma, iv, 1 mg/kg; read-out: Vdss
measured metric: Vd (L/kg)
Dear colleague, please return just the value in L/kg, with no unit written.

For reference, reported Vd for CN(Cc1nc2c(N3CCOCC3)nc(-c3ccc(N)cc3)nc2n1C)c1ncc(C(=O)NO)cn1.CS(=O)(=O)O [PM] stands at 1.43

====

- measurement protocol: Pharmacokinetics, intravenous
- Type: in vivo, SD rats
- condition details: both sexes, SD, rat, plasma, iv; 10 mg/kg single i.v.
measured metric: C0 (ng/mL)
Dear colleague, please return just the value in ng/mL, with no unit written.

For reference, reported C0 for CN(Cc1nc2c(N3CCOCC3)nc(-c3ccc(N)cc3)nc2n1C)c1ncc(C(=O)NO)cn1.CS(=O)(=O)O stands at 11500

====

- measurement protocol: Pharmacokinetics, intravenous
- Assay type: in vivo, SD rats
- condition details: both sexes, SD, rat, plasma, iv, 3 mg/kg; read-out: T1/2
measured metric: half-life (min)
Dear colleague, please return just the value in min, with no unit written.

For reference, reported half-life for CN(Cc1nc2c(N3CCOCC3)nc(-c3ccc(N)cc3)nc2n1C)c1ncc(C(=O)NO)cn1.CS(=O)(=O)O [PM] stands at 4.21

====

# share of plasma AUC0-96h listing for each entry below
- measurement protocol: Metabolite profiling in plasma, bile, urine, feces
- Type: in vivo, SD rats
- condition details: male rats, [14C] 3 mg/100 µCi/kg i.v.
- Protocol: Following a single intravenous administration of [14C] Purinostat Mesylate at a dose of 3 mg/100 µCi/kg in male and female rats, a total of 14 metabolites were identified, in addition to the parent compound. These were designated as M382, M396, M474, M475, M490, M516, M517, M532, M546, M548, M558, M666, M708a, and M708b. […]
Dear colleague, please return just the value in %, with no unit written.

# query smiles, measured metric, observed result
measured = [
    ("CN(Cc1nc2c(N3CCOCC3)nc(-c3ccc(N)cc3)nc2n1C)c1ncc(C(=O)NO)cn1.CS(=O)(=O)O", "share of plasma AUC0-96h", 8.79),
    ("CN(Cc1nc2c(N3CCOCC3)nc(-c3ccc(N)cc3)nc2n1C)c1ncc(C(N)=O)cn1", "share of plasma AUC0-96h", 13.79),
]

In the following, a different compound is considered.
For reference, reported share of plasma AUC0-96h for CC(=O)Nc1ccc(-c2nc(N3CCOCC3)c3nc(CN(C)c4ncc(C(N)=O)cn4)n(C)c3n2)cc1 stands at 17.42

====

- measurement protocol: Pharmacokinetics and tissue distribution in Ighmyc mice
- Format: in vivo
- condition details: Ighmyc (Eμ-myc), mouse, plasma, iv; single i.v. 5 mg/kg; read-out: MRT in plasma
measured metric: MRT

For reference, reported MRT for CN(Cc1nc2c(N3CCOCC3)nc(-c3ccc(N)cc3)nc2n1C)c1ncc(C(=O)NO)cn1.CS(=O)(=O)O [PM] stands at 6 h

====

- Tested on: AMO1
- measurement protocol: Cell viability CCK8
- Type: cell-based
- condition details: Homo sapiens; AMO1, 72 h; no unit in table; read-out: Antiproliferative activity IC50
# IC50 listing for each entry below
Dear colleague, please return just the value in nM, with no unit written.

# compound, target or test system, observed result
measured = [
    ("CN(Cc1nc2c(N3CCOCC3)nc(-c3ccc(N)cc3)nc2n1C)c1ncc(C(=O)NO)cn1.CS(=O)(=O)O", "AMO1", 1.78),
]

In the following, a different compound is considered.
For reference, reported IC50 for Cc1[nH]c2ccccc2c1CCNCc1ccc(/C=C/C(=O)NO)cc1 [panobinostat, reference compound] stands at 3.45

====

- measurement protocol: clinical
- Type: in vivo, human
- condition details: human, plasma, iv, single (Day 1) intravenous, range over doses; read-out: half-life (t1/2)
measured metric: half-life

For reference, reported half-life for CN(Cc1nc2c(N3CCOCC3)nc(-c3ccc(N)cc3)nc2n1C)c1ncc(C(=O)NO)cn1.CS(=O)(=O)O [PM] stands at 2.3 to 3.51 h

====

- target or test system: CYP1A2 (Homo sapiens)
- Sequence (P05177 whole entry): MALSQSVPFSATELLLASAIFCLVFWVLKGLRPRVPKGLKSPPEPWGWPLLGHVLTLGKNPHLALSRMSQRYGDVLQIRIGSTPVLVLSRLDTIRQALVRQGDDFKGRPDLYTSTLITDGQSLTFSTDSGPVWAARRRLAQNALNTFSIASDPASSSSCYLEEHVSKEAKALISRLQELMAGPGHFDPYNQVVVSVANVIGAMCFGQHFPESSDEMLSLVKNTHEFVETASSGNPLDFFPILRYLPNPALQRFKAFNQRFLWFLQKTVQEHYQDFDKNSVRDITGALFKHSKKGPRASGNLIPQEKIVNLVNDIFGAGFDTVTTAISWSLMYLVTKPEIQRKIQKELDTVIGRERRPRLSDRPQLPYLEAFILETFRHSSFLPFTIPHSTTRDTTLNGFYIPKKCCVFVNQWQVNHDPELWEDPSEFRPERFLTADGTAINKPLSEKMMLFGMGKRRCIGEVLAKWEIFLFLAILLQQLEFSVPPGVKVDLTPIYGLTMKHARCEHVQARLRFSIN
measured metric: IC50

For reference, reported IC50 for CN(Cc1nc2c(N3CCOCC3)nc(-c3ccc(N)cc3)nc2n1C)c1ncc(C(=O)NO)cn1.CS(=O)(=O)O stands at > 10 µM

====

- measurement protocol: Pharmacokinetics and tissue distribution in Ighmyc mice
- Type: in vivo
- condition details: Ighmyc (Eμ-myc), mouse, spleen, iv; single i.v. 5 mg/kg; read-out: MRT in spleen
- From the text: In B cell-related tumors, the mechanism of disease often involves the translocation of the MYC oncogene to the immunoglobulin promoter region, leading to its hyperactivation. The translocation of the MYC gene to the IGH enhancer (t(8;14) (q24;q32)) is a molecular hallmark of Burkitt lymphoma. The Ighmyc (Eμ-myc) mouse model successfully mimics this pathogenic mechanism by translocating the MYC oncogene to the immunoglobulin μ enhancer. […]
measured metric: MRT (h)
Dear colleague, please return just the value in h, with no unit written.

For reference, reported MRT for CN(Cc1nc2c(N3CCOCC3)nc(-c3ccc(N)cc3)nc2n1C)c1ncc(C(=O)NO)cn1.CS(=O)(=O)O [PM] stands at 24.8

====

- measurement protocol: Plasma protein binding, equilibrium dialysis
- Type: in vitro ADME
- condition details: human, 0.2 µM, read-out: plasma protein binding rate (converted)
measured metric: fraction unbound at 0.2 µM
Lab note: record the figure alone, no unit after it.

For reference, reported fraction unbound at 0.2 µM for CN(Cc1nc2c(N3CCOCC3)nc(-c3ccc(N)cc3)nc2n1C)c1ncc(C(=O)NO)cn1.CS(=O)(=O)O stands at 0.097

====

- measurement protocol: Pharmacokinetics, intravenous
- Assay type: in vivo, SD rats
- condition details: both sexes, SD, rat, plasma, iv, 10 mg/kg; read-out: plasma clearance (CL)
measured metric: clearance (mL/min/kg)
Dear colleague, please return just the value in mL/min/kg, with no unit written.

For reference, reported clearance for CN(Cc1nc2c(N3CCOCC3)nc(-c3ccc(N)cc3)nc2n1C)c1ncc(C(=O)NO)cn1.CS(=O)(=O)O stands at 131

====

- measurement protocol: in vivo
- condition details: rat
measured metric: NOAEL

For reference, reported NOAEL for CN(Cc1nc2c(N3CCOCC3)nc(-c3ccc(N)cc3)nc2n1C)c1ncc(C(=O)NO)cn1.CS(=O)(=O)O [PM] stands at < 3 mg/kg

====

- target or test system: human ether-à-go-go-related gene (hERG) channel (Homo sapiens, UniProt Q12809)
- Sequence (Q12809 whole entry): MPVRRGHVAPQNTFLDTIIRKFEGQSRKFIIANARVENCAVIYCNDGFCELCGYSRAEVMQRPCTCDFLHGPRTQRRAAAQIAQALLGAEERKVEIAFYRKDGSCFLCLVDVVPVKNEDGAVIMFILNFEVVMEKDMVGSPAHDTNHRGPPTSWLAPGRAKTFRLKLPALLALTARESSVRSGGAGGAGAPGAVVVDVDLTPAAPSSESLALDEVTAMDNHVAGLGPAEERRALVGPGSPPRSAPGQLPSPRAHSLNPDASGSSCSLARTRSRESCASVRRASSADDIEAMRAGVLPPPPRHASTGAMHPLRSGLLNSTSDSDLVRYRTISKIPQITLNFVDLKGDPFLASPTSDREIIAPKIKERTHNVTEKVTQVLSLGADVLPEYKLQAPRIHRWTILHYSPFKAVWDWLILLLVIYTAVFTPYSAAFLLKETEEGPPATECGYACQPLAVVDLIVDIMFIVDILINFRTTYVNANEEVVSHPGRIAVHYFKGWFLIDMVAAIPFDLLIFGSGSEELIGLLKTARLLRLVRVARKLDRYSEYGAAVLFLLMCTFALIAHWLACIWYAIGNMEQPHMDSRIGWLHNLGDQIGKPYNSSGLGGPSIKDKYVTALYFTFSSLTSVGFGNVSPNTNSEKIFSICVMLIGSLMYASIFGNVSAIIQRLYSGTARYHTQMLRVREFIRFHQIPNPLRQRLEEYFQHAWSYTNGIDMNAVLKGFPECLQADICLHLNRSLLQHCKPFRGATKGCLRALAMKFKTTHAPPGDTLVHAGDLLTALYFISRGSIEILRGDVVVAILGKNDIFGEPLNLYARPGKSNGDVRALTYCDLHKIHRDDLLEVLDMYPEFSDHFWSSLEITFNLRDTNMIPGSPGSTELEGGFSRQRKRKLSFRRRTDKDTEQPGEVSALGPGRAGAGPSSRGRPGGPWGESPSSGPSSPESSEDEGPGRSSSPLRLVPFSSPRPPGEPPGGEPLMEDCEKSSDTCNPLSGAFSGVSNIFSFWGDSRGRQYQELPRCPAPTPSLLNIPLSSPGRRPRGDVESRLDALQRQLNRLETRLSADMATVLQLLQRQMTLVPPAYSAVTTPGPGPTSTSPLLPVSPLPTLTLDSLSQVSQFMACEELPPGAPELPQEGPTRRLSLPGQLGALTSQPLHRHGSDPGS
measured metric: IC50 (µM)
Dear colleague, please return just the value in µM, with no unit written.

The molecule Cc1[nH]c2ccccc2c1CCNCc1ccc(/C=C/C(=O)NO)cc1 [panobinostat, reference compound] , tested on human ether-à-go-go-related gene (hERG) channel (Homo sapiens, UniProt Q12809), showed IC50 of 3.5

====

- measurement protocol: Pharmacokinetics and tissue distribution in Ighmyc mice
- Format: in vivo
- condition details: Ighmyc (Eμ-myc), mouse, plasma, iv; single i.v. 5 mg/kg; read-out: Cmax in plasma
measured metric: Cmax (ng/mL)
Dear colleague, please return just the value in ng/mL, with no unit written.

For reference, reported Cmax for CN(Cc1nc2c(N3CCOCC3)nc(-c3ccc(N)cc3)nc2n1C)c1ncc(C(=O)NO)cn1.CS(=O)(=O)O stands at 304

====

- measurement protocol: Metabolite profiling in plasma, bile, urine, feces
- Assay type: in vivo, SD rats
- condition details: females, 0 to 168 hours
# amount in feces, % of administered dose listing for each entry below

# compound, amount in feces, % of administered dose
records = [
    ("CC(=O)Nc1ccc(-c2nc(N3CCOCC3)c3nc(CN(C)c4ncc(C(=O)O)cn4)n(C)c3n2)cc1 [M517]", "0.79% to 5.53"),
]

For reference, reported amount in feces, % of administered dose for CN(Cc1nc2c(N3CCOCC3)nc(-c3ccc(N)cc3)nc2n1C)c1ncc(C(N)=O)cn1 [M474] stands at 0.79% to 5.53

For reference, reported amount in feces, % of administered dose for CONC(=O)c1cnc(N(C)Cc2nc3c(N4CCOCC4)nc(-c4ccc(NC(C)=O)cc4)nc3n2C)nc1 [M546] stands at 0.79% to 5.53
